AC50 by entry:
target: Heat shock protein HSP 90-alpha (Homo sapiens); assay type: functional, organism-based
The source made the active and inactive calls.
measure: AC50

# test.smiles, target, measure, observed.measurement
measured = [
    ("CN1CCc2nc3sc(C(=O)C45CC6CC(CC(C6)C4)C5)c(N)c3cc2C1", "Heat shock protein HSP 90-alpha (Homo sapiens)", "AC50", "1.82 µM (active)"),
    ("COC(=O)/C=C\\C(=O)Nc1cccc([N+](=O)[O-])c1", "Heat shock protein HSP 90-alpha (Homo sapiens)", "AC50", "3.67 µM (active)"),
    ("O=C1C=CC(=O)N1c1ccc(Nc2ccccc2)cc1", "Heat shock protein HSP 90-alpha (Homo sapiens)", "AC50", "1.85 µM (active)"),
    ("COc1ccc2c(c1)CCc1c(C(=O)N3CCc4ccccc4C3)noc1-2", "Heat shock protein HSP 90-alpha (Homo sapiens)", "AC50", "6.29 µM (active)"),
]
